TEST TARGET: Muscarinic acetylcholine receptor M4 (Homo sapiens)
PROTOCOL: M4-linked GIRK flux change, two-sided – cell-based, HEK293 M4/GIRK, thallium flux, BTC-AM, M4 allosteric agonist project, primary screen (AID 625);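 also: thallium influx through GIRK channels coupled to M4 in HEK293 cells with BTC-AM dye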
RECORDED CONDITIONS: at 10 µM, actives lie on both sides
The source made the active and inactive calls.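 The calls were made as follows: active = fluorescence slope after compound addition differing from the mean of all tested samples at 99.7% confidence, mostly higher but some lower; inactive = the rest.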
READOUT TYPE: fluorescence slope

In [3]: df
Out[3]:
                                    compound      value_measured
 0  CC1(c2cnc(Nc3ccccc3)s2)CCC(=O)O1 (stereo not given)  0.00609 (inactive)
 1  CC(NC(=O)OCc1ccccc1)C(=O)N1CC(O)CC1C(=O)O (stereo not given)  0.00618 (inactive)
 2                   Cc1ccccc1-c1noc(N)c1C#N  0.00617 (inactive)
 3  CCCCCn1c(=O)[nH]c2cc(C(=O)NCCCN3CCCCC3)ccc2c1=O  0.00603 (inactive)
 4            CCOC(=O)CN(C)Cc1c[nH]c2ccccc12  0.00441 (inactive)
 5           CCCCc1ccc(NC(=O)c2c(C)noc2C)cc1  0.00365 (inactive)
 6  O=C(c1ccc(Cl)cc1)N(Cc1cccs1)C1CCS(=O)(=O)C1 (stereo not given)  0.00385 (inactive)
 7                  N=c1sc2ccccc2n1-c1ccccc1  0.00638 (inactive)
 8         COc1ccc2cnn(-c3ccccc3)c(=O)c2c1OC  0.00377 (inactive)
 9              CCOC(=O)c1sc2nc(C)cc(C)c2c1N  0.00463 (inactive)
10  CCCC(=O)N=C1SC2CS(=O)(=O)CC2N1c1ccc(CC)cc1 (stereo not given)   0.0062 (inactive)
11  FC(F)(F)C(F)(F)C(F)(F)c1nnc2ccc(N3CCOCC3)nn12   0.0046 (inactive)
12  CCOC(=O)C1=C(C)NC(SC(C)=O)=NC1c1ccc(OC(C)=O)c(OC)c1 (stereo not given)   0.0052 (inactive)
13  CCN(CC)C(=O)c1ccc(NS(=O)(=O)c2ccccc2)cc1   0.0035 (inactive)
14  COC(=O)c1sc(S(=O)(=O)Nc2ccc3cn[nH]c3c2)c(C(=O)OC)c1C   0.0043 (inactive)

###

Measured NADPH fluorescence slope, listed per entry.
TEST TARGET: Voltage-gated potassium channel subunit beta-2 (Rattus norvegicus) (UniProt P62483)
Sequence (P62483 whole entry, looked up): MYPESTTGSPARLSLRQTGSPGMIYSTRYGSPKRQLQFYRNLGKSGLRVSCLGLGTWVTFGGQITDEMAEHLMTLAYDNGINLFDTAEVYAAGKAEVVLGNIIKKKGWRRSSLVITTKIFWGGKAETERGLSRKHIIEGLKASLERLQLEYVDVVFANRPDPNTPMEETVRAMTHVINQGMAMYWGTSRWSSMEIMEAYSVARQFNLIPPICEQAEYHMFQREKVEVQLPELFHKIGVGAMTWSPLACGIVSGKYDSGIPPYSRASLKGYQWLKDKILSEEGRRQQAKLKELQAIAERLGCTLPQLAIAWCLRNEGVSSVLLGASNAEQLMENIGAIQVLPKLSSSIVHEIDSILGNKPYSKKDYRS
PROTOCOL: enhancers of rat Kvbeta2 NADPH turnover – biochemical, NADPH fluorescence, primary screen (AID 623);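 also: fluorescence intensity change per second fitted from 20 to 320 s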
RECORDED CONDITIONS: Recombinant KvBeta, NADPH fluorescence decrease slope, 10 min; at 10 µM; hits give low values
READOUT TYPE: NADPH fluorescence slope

In [3]: df
Out[3]:
                                    molecule  value_measured
 0      COCCn1c(-c2ccc(OC)c(OC)c2)nc2ccccc21        -3.2e-05
 1  CS(=O)(=O)N(CC(=O)N1CCN(c2cccc(Cl)c2)CC1)C1CCCCC1        -4.3e-05
 2  Cc1ccc2c(c1C)NC(C)CC2C (configuration not stated)        -2.8e-05
 3  CC(C)(C)NC(=O)C(c1ccco1)N(C(=O)Cn1nnc(-c2ccc(F)cc2)n1)c1ccccc1 (configuration not stated)         8.1e-06
 4             O=C(O)c1[nH]nc2c1COc1ccccc1-2       -0.000118
 5  CCCCCn1c(=O)[nH]c2cc(C(=O)NCCN3CCOCC3)ccc2c1=O        -3.7e-05
 6  O=C(NCC1COCCO1)C1CCN(S(=O)(=O)c2ccccc2)CC1 (configuration not stated)         3.3e-05
 7      CC(=O)Nc1cccc(-c2nnc(-c3ccccc3)o2)c1          -3e-05
 8     Clc1ccc2nc(N3CCNCC3)nc(-c3ccccc3)c2c1        -6.4e-06
 9  CN(CC(=O)N1CCN(c2ccc(F)cc2)CC1)S(=O)(=O)c1ccc(F)cc1        -6.1e-05
10  CCn1c(=O)n(CC(=O)Nc2cc(OC)ccc2OC)c(=O)c2ccccc21        -5.4e-05
11  CC(C)C1N=C2c3ccccc3N=C(SCC(=O)NCCc3ccc(S(N)(=O)=O)cc3)N2C1=O (configuration not stated)        -3.3e-05
12     CCOC(=O)C1CCN(C(=O)c2ccc(OC)cc2OC)CC1         5.6e-06
13  COc1cccc(CNC(=O)C2CCN(S(=O)(=O)c3ccc(F)cc3)CC2)c1        -5.5e-05
14               c1ccc(OCCOc2ncnc3sccc23)cc1          -5e-05
15   COc1ccccc1N(CC(=O)NCc1ccccc1)S(C)(=O)=O        -4.1e-05
16  Cc1ccc(C(=O)NC2CC3CCCC(C2)N3C(=O)NC2CCCCC2)cc1 (configuration not stated)         5.4e-08

###

TEST TARGET: Muscarinic acetylcholine receptor M4 (Homo sapiens) (UniProt P08173)
Sequence (P08173 whole entry, looked up): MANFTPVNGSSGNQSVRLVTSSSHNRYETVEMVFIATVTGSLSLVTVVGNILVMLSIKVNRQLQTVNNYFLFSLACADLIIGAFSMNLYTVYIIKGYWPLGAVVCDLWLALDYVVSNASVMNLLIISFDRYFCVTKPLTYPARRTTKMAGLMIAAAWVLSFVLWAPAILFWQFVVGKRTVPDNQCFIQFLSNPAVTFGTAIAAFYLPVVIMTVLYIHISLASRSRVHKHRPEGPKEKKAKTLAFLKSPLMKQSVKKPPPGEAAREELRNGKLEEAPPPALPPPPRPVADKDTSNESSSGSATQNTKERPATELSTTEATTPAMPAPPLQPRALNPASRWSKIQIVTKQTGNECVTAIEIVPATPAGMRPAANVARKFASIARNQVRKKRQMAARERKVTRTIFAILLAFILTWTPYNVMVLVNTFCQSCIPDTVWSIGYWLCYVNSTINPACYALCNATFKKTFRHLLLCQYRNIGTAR
PROTOCOL: M4-linked GIRK flux change, two-sided – cell-based, HEK293 M4/GIRK, thallium flux, BTC-AM, M4 allosteric agonist project, primary screen (AID 625);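 also: thallium influx through GIRK channels coupled to M4 in HEK293 cells with BTC-AM dye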
RECORDED CONDITIONS: at 10 µM, actives lie on both sides
READOUT TYPE: fluorescence slope

In [3]: df
Out[3]:
                                   molecule  value_measured
0              O=C(NCc1ccco1)c1noc2c1CCCCC2         0.00608
1  O=C(Cn1cccc1)N1CCN(C(c2ccccc2)c2ccccc2)CC1         0.00614
2  OCCN1CCN(CC(O)COc2ccc3ccccc3c2)CC1 (centres undefined)         0.00595
3  C=CCOc1ccc(/C(O)=C2\C(=O)C(=O)N(CCOC)C2c2cccnc2)cc1 (centres undefined)         0.00592

###

TEST TARGET: Dual specificity protein phosphatase 6 (Homo sapiens) (UniProt Q16828)
Sequence (Q16828 whole entry, looked up): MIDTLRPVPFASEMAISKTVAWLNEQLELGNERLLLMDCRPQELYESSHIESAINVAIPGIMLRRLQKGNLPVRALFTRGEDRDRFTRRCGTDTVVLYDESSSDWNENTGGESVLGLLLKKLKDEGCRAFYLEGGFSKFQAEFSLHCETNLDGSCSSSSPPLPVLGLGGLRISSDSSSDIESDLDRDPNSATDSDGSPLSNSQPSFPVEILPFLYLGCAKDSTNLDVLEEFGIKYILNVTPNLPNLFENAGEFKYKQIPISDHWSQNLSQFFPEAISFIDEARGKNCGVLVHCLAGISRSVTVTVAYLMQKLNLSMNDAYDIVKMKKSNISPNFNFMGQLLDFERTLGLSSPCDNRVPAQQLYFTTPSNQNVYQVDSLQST
PROTOCOL: Primary imaging screen for DUSP6 inhibitors that restore phospho-Erk in transfected HeLa cells, chemical complementation (AID 609);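 also: phospho-Erk level distribution per well compared with pooled transfected vehicle control wells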
RECORDED CONDITIONS: HeLa MKP-3 transfected, phospho-Erk imaging KS statistic; at 10 µM; hits give high values; cells stimulated with TPA for 15 min
Measured inhibition, listed per entry.

COMPOUND	inhibition, %
O=C(c1ccc(F)cc1)C1CCN(CCn2c(=O)[nH]c3ccccc3c2=O)CC1	14.6
NC(=O)c1ccccc1OCCOCCOCCOc1ccccc1C(N)=O	3.66
CC(C)C[C@H]1C(=O)N2CCC[C@H]2[C@]2(O)O[C@](NC(=O)[C@@H]3C=C4c5cccc6[nH]c(Br)c(c56)CC4N(C)C3)(C(C)C)C(=O)N12 (some centres undefined)	5.42
COc1cc2nc(N3CCN(C(=O)C4COc5ccccc5O4)CC3)nc(N)c2cc1OC (centres undefined)	-0.493
Cc1cc(N/C=C/C(=O)c2cccc3ccccc23)no1	13.2
CC1=NS(=O)(=O)c2cc(Cl)ccc2N1	19.2
C=C(CC)C(=O)c1ccc(OCC(=O)O)c(Cl)c1Cl	5.42
COc1cc(C2C(C#N)=C(N)Oc3cc(N)ccc32)cc(OC)c1OC (centres undefined)	2.92
O=c1[nH]c(=O)n([C@H]2C[C@H](O)[C@@H](CO)O2)cc1F	3.59

###

PROTOCOL: loss of swimming-algae plug formation – whole organism, Chlamydomonas reinhardtii, WT vs cilia-less mutant, absorbance, 96-well, primary screen (AID 463189);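 also: 0% = wild type cc124 cells in DMSO and 100% = ciliumless bld1 mutant cells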
RECORDED CONDITIONS: Chlamydomonas reinhardtii gravitaxis, OD600 absorbance, 2 days; at 10 µM; hits give high values
The source made the active and inactive calls.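 The calls were made as follows: active = inhibition at or above 50% relative to wild type and mutant plate controls; inactive = inhibition below 50%.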
Measured inhibition, listed per entry.

MOLECULE	inhibition
N[C@@H](CCC(=O)N[C@H](CSN=O)C(=O)NCC(=O)O)C(=O)O	3.12% (inactive)
CC(=O)O[C@H]1C(=O)[C@@]2(C)C([C@H](OC(=O)c3ccccc3)[C@]3(O)C[C@H](OC(=O)[C@H](O)[C@@H](NC(=O)c4ccccc4)c4ccccc4)C(C)=C1C3(C)C)[C@]1(OC(C)=O)CO[C@@H]1C[C@@H]2O (some centres undefined)	8.47% (inactive)
[Li+]	-0.162% (inactive)
C[C@@H](Oc1ccc(Oc2cnc3ccc(Cl)cc3n2)cc1)C(=O)O	9.86% (inactive)
O=C(O)CCC(=O)N1CCCC1C(=O)O (centres undefined)	0.347% (inactive)
O=C(O)CCCCCCCC(=O)O	5.5% (inactive)
Nc1c(S(=O)(=O)O)cc(Nc2ccc(Nc3nc(Cl)nc(Nc4ccc(S(=O)(=O)O)cc4)n3)c(S(=O)(=O)O)c2)c2c1C(=O)c1ccccc1C2=O	8.09% (inactive)
COc1cccc(C(=O)NCC(=O)n2nc(C)cc2C)c1	36% (inactive)
CCN(CC)CCOC(=O)c1ccc(N)cc1	-0.871% (inactive)
NC12CC3CC(CC(C3)C1)C2	-2.58% (inactive)
CCCCCCCCCCCCCCCCCC(=O)NCC(COP(=O)([O-])OCC[N+](C)(C)C)OCC (centres undefined)	9.71% (inactive)
Cc1ccc(/C(=C\CN2CCCC2)c2ccccn2)cc1	11.6% (inactive)
CC1CN(S(=O)(=O)c2cccc3cnccc23)CCN1 (centres undefined)	5.73% (inactive)
NC(N)=NC(=O)Cc1c(Cl)cccc1Cl	4.12% (inactive)
Cc1ccc(S(=O)(=O)N[C@@H](Cc2ccccc2)C(=O)CCl)cc1	-2.77% (inactive)
CNCC[C@H](Oc1ccc(C(F)(F)F)cc1)c1ccccc1	-14.3% (inactive)
COc1cc2c(cc1OC)-c1cc(=Nc3c(C)cc(C)cc3C)n(C)c(=O)n1CC2	10.5% (inactive)
CCn1c(=O)c2[nH]c(-c3ccccc3)nc2n(CC)c1=O	-1.12% (inactive)
N=C1Sc2ccccc2C2=NCCCN12	9.36% (inactive)
N[C@@H](Cc1c[nH]c2ccc(O)cc12)C(=O)O	4.83% (inactive)
NCCCNCCCCNCCCN	-2.56% (inactive)
CC(C)Cc1ccc([C@H](C)C(=O)O)cc1	8.1% (inactive)
COc1ccc(Cn2ccnc2)cc1Br	109% (active)
COc1cc(C(O)CO)ccc1O (centres undefined)	1.74% (inactive)

Just for reference, PubChem BioAssay is where these values come from.
